# system_tested: GST-Dm-Relish (Drosophila melanogaster, UniProt Q94527 99-473)
# Sequence: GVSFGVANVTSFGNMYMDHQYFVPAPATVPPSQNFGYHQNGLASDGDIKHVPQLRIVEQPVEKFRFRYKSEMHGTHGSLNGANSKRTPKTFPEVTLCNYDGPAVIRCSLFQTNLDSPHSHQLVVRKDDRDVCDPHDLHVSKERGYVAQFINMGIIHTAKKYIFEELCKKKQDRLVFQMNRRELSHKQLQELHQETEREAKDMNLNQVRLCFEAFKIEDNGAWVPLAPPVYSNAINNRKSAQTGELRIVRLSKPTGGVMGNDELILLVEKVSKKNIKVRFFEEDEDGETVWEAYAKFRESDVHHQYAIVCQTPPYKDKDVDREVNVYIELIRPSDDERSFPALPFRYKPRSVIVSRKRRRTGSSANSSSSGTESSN
# test_summary: protein-binding microarray (PBM); PBM: ~300 nM protein, 6 mM HEPES pH 7.8, 80 mM KCl, 0.5 mM EDTA, 0.5 mM EGTA, 6% glycerol, 35 ng/ul poly-dIdC, 1% milk, 1 h, room temperature; Ap Aiptasia and Nv Nematostella (sea anemones) / Co Capsaspora / Aq Amphimedon (sponge) / Dm Drosophila / Hu human; RHD is the Rel homology domain; high values mean tight binding
# test_settings: dsDNA, one strand shown
Use yes when the recorded binding signal is no lower than 3 z-score; use no when it is lower.

                           ordered_residues                             system_tested  category
0  CCGATTAACATCAGGGGGAAACATGATGTTAATCGGGTCTTGATTCGCTTGACGCTGCTG  GST-Dm-Relish (Drosophila melanogaster, UniProt Q94527 99-473)       yes
1  CCGATTAACATCAGGGGGATGCATGATGTTAATCGGGTCTTGATTCGCTTGACGCTGCTG  GST-Dm-Relish (Drosophila melanogaster, UniProt Q94527 99-473)       yes
2  CCGATTAACATCAGGGGAGAAAATGATGTTAATCGGGTCTTGATTCGCTTGACGCTGCTG  GST-Dm-Relish (Drosophila melanogaster, UniProt Q94527 99-473)        no
3  CCGATTAACATCACGTTATTTCCTGATGTTAATCGGGTCTTGATTCGCTTGACGCTGCTG  GST-Dm-Relish (Drosophila melanogaster, UniProt Q94527 99-473)        no

Check this sequence for binding signal at or above 3 z-score: CCGATTAACATCAATTCCCCTGATGATGTTAATCGGGTCTTGATTCGCTTGACGCTGCTG yes

Now consider CCGATTAACATCACAAACGGGGCTGATGTTAATCGGGTCTTGATTCGCTTGACGCTGCTG and answer again. no

Now consider CCGATTAACATCAGGGGGTAGGATGATGTTAATCGGGTCTTGATTCGCTTGACGCTGCTG and answer again. no

Now consider CCGATTAACATCAGAATACCCCCTGATGTTAATCGGGTCTTGATTCGCTTGACGCTGCTG and answer again. yes

Now consider CCGATTAACATCAGAAATATCCCTGATGTTAATCGGGTCTTGATTCGCTTGACGCTGCTG and answer again. yes

Now consider CCGATTAACATCAAGCCCCCCCTTGATGTTAATCGGGTCTTGATTCGCTTGACGCTGCTG and answer again. yes
